Source listed as the RNAGym collection of RNA variant scans (doi:10.1073/pnas.2313332121).

B1: TPR 5TU (parent)
chain: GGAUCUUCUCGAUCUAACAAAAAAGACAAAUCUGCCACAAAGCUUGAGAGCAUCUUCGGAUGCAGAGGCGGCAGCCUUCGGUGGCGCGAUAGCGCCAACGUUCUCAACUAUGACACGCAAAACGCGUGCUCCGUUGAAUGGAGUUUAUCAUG

variants of: B1; assay: polymerase ribozyme fitness, log enrichment relative to wild type (log ratio); higher = more active; in vitro selection for triplet polymerase activity
Variants at the floor of the assay were thinned out.
ATTRIBUTE MEASURED: polymerase ribozyme fitness (log ratio)
Enter the number alone.

A selection of reference data follows.
Q. Requested field: polymerase ribozyme fitness (log ratio). Item: C57G G59C G86A A142G
A. -3.23

Q. Moving on to the next variant: U31C U55A G136U A150G
A. -1.81

Q. Another variant to look at: G25U C35A A41G C54U C87U C95U
A. -3.99

More entries:
Q. Item under review: G58A G83A G140U . Reported polymerase ribozyme fitness (log ratio)?
A. -3.64

Q. Also, C87G G141C please.
A. -3.99

Q. // query: A37G U53A U134G
A. -3.7

Q. Now try C38U U61A A106C G141A .
A. -3.01

Q. Field entry: A98G G124C
A. -0.819

Q. Same lookup for U13A U61A C85U , please.
A. -2.01

Q. Cool, now G83U A142C U145C
A. -3.76

Q. Check G59A G86A too.
A. -2.02

Q. And the next one, C69U G94A A122G U135A U146G ?
A. -2.95

Q. What do we get for C57A A150U ?
A. 1.72

Q. Now the variant C54A U56A C93U A120G G126U
A. -2.38

Q. Another variant to check: U61A C72U
A. -3.66

Q. Next record, please: A12U G92U
A. -1.64

Q. Also A12C C38A C93U ?
A. -1.62

Q. Another variant to look at: U45G C87U U101C
A. -3.99
